Catalogue of compounds with associated growth
System: MDA-MB-231 breast
ASSAY_INFO: NCI-60 one-dose screen, 48 h (100 = growth as untreated, 0 = no growth, -100 = all killed)
CONDITION_SET: 10 µM unless noted
The panel holds about 83,000 compounds, 20% with a hit somewhere; the sample as a whole holds those more often.
Output spec: scalar in %, unitless text.

Oc1ccc(CN(Cc2ccc(C(F)(F)F)cc2)Cc2ccc(O)c3ncccc23)c2cccnc12 : 48.4

Looking for the measured growth of O=C(Nc1cccc(Cn2c(=O)[nH]c3ccc(Oc4ncccn4)cc3c2=O)c1)c1cccc(F)c1 , can you help? 74.7

Looking for the measured growth of CC1C(=O)CCCC1=O , can you help? 101

Looking for the measured growth of CCc1c(C)c2ccc(OCC(=O)N=Nc3c(O)[nH]c4ccccc34)c(C)c2oc1=O , can you help? 0.841

Looking for the measured growth of CC(C)(C)c1ccc(OCCOC(=O)CBr)cc1 , can you help? 88

Looking for the measured growth of COc1cc(CNC(=O)CCCC/C=C/C(C)C)ccc1OCc1nnc(Nc2ccccc2F)o1 , can you help? 63.9

* * *

System: HCT-116 colon
ASSAY_INFO: NCI-60 one-dose screen, 48 h (100 = growth as untreated, 0 = no growth, -100 = all killed)
CONDITION_SET: 10 µM unless noted
About 83,000 compounds went through this panel and 20% of them were active in at least one assay; those are over-represented in the sample as a whole.
PROPERTY_MEASURED: growth (%)
Output spec: scalar in %, unitless text.

CC(C)C(=O)c1ccc(Cl)s1 : 97
CC(=O)Nc1nc(C)c(C(=O)NNC(=O)Nc2ccccc2)s1 : 102
CC(C)(C)c1cc(C[P+](c2ccc(Cl)cc2)(c2ccc(Cl)cc2)c2ccc(Cl)cc2)cc(C(C)(C)C)c1O : 40.7
CCCCCCNC(=O)Oc1ccc(/C(=C(/C)Cc2ccc(OC)cc2)c2ccc(OCCN(C)C)cc2)cc1 : 26.7
CCCCCCCCCCCCCCCCNC(=S)N/N=C/c1ccc(OC)cc1 : 89.6

Looking for the measured growth of C[n+]1c2ccccc2c(Nc2ccc(NS(=O)(=O)CCCCN=C(N)N)cc2)c2ccc(N)cc21 , can you help? 37.3

Looking for the measured growth of COc1ccc(-c2nc(Nc3nc4ccccc4[nH]3)nc(N)c2C#N)cc1 , can you help? 93.8

Looking for the measured growth of COc1ccc2c(c1)/C(=C/c1c(-c3cc(OC)c(OC)c(OC)c3)nc3sccn13)C(=O)N2 , can you help? 88.3

Looking for the measured growth of C[C@@H](c1ccc2c(c1)[nH]c1ccc(Cl)cc12)c1nc2ccc(Cl)cc2[nH]1 , can you help? 79.7

Looking for the measured growth of C=CCNC(=S)NNc1ccc([N+](=O)[O-])cn1 , can you help? 97.6

Looking for the measured growth of O=C(NCCO)C(F)(F)F , can you help? 108

* * *

System: SK-MEL-2 melanoma
ASSAY_INFO: NCI-60 one-dose screen, 48 h
CONDITION_SET: 10 µM unless noted
Compounds without any hit were thinned out: in the full panel of roughly 83,000, 20% have a hit. Calls of active or inactive are those of the source. The calls were made as follows: active = growth percent below 10; inactive = the rest.
Answer with one of the outcomes given here: active, inactive

Worked examples follow.
CCCCN(CCCC)CCCNc1c2c(nc3ccc(Cl)cc13)CCCC2 : inactive
O=C(O)c1ccc(Br)nc1 : inactive
c1ccc(-c2cn3ccnc3c(-c3ccc4ncn(C5CCCCC5)c4c3)n2)cc1 : inactive

Outcome logged for COc1ccc(/C=C/C(=O)/C=C/c2cc3ccccc3[nH]c2=O)cc1 in this assay: inactive

Outcome logged for COC1=C(OC)C(=O)c2ccccc2C1=O in this assay: inactive

Outcome logged for O=C(Oc1ccccc1)c1ccccc1Cl in this assay: inactive

Outcome logged for COc1ccc(Oc2[nH]n(C3=Nc4ccccc4Sc4ccccc43)c(=O)c2C#N)cc1 in this assay: inactive

Where do these numbers come from? They come from PubChem BioAssay (NCI).
